# TEST DETAILS: HPLC on immobilized artificial membrane column (HPLCIAM)
# Format: physicochemical
# EXPERIMENTAL CONTEXT: Table S5, IAM column, pH 7.4
// thresholds for log k IAM classes: category 1 (below 0.4), category 2 (0.4 to below 0.8), category 3 (0.8 or more)

C[C@H]1c2cccc(O)c2C(=O)C2=C(O)[C@]3(O)C(=O)C(C(N)=O)=C(O)[C@@H](N(C)C)[C@@H]3[C@@H](O)[C@@H]21 [doxycycline]; category 1
CCCCCOC(=O)Nc1nc(=O)n([C@@H]2O[C@H](C)[C@@H](O)[C@H]2O)cc1F [capecitabine]; category 1
CCN(CC)C(=O)Nc1ccc(OCC(O)CNC(C)(C)C)c(C(C)=O)c1 (stereo not shown) [celiprolol]; category 2

query: Lab note: sort Cc1ccc(-c2nc3ccc(C)cn3c2CC(=O)N(C)C)cc1 [zolpidem] into the matching log k IAM band.
result: category 2

query: Lab note: sort CCN(CC)CC#CCOC(=O)C(O)(c1ccccc1)C1CCCCC1 (stereo not shown) [oxybutinin] into the matching log k IAM band.
result: category 3

query: Lab note: sort O=C(O)COC(=O)Cc1ccccc1Nc1c(Cl)cccc1Cl [aceclofenac] into the matching log k IAM band.
result: category 2

query: Lab note: sort C[C@]12CC[C@@H]3c4ccc(OC(=O)c5ccccc5)cc4CC[C@H]3[C@@H]1CC[C@@H]2O [estradiol benzoate] into the matching log k IAM band.
result: category 3

query: Lab note: sort COc1ccc(C(CN(C)C)C2(O)CCCCC2)cc1 (stereo not shown) [venlafaxine] into the matching log k IAM band.
result: category 3

query: Lab note: sort OCCOCCN1CCN(C2=Nc3ccccc3Sc3ccccc32)CC1 [quetiapine] into the matching log k IAM band.
result: category 3

* * *

# TEST DETAILS: NP TLC on non-impregnated control plates
# Type: physicochemical
# EXPERIMENTAL CONTEXT: Table S8, external group
Please respond with reported CNP (Rf value from the non-impregnated NP plate, control) for every item in the list.
Give bare numbers.

Nc1cc(N2CCCCC2)nc(N)[n+]1[O-]; 0.43
CC(C)(C)NC[C@H](O)COc1nsnc1N1CCOCC1; 0.34
CCCCN1CCCCC1C(=O)Nc1c(C)cccc1C (stereo not shown); 0.67
O=C(c1ccccc1)c1ccc2n1CCC2C(=O)O (stereo not shown); 0.92
CCC(C)n1ncn(-c2ccc(N3CCN(c4ccc(OCC5COC(Cn6cncn6)(c6ccc(Cl)cc6Cl)O5)cc4)CC3)cc2)c1=O (stereo not shown); 0.96
CCOC(=O)C1=C(C)NC(C)=C(C(=O)OC)C1c1cccc([N+](=O)[O-])c1 (stereo not shown); 0.97

Could you tell me CNP (Rf value from the non-impregnated NP plate, control) for each of these molecules? They are listed below.
1. CC[C@@H](CO)NCCN[C@@H](CC)CO
2. NC(=O)N1c2ccccc2CC(=O)c2ccccc21 [oxcarbamazepine]
3. CN(C)CCC=C1c2ccccc2CCc2ccccc21
4. CCS(=O)(=O)CCn1c([N+](=O)[O-])cnc1C
5. CC(N)C12CC3CC(CC(C3)C1)C2 (stereo not shown)
6. COc1cc(Cc2cnc(N)nc2N)cc(OC)c1OC
7. CC[C@@H](C(N)=O)N1CCCC1=O

result:
0.19
0.91
0.32
0.89
0.92
0.57
0.92

* * *

# TARGET: human serum albumin (HSA) (Homo sapiens)
# Sequence (P02768 25-609): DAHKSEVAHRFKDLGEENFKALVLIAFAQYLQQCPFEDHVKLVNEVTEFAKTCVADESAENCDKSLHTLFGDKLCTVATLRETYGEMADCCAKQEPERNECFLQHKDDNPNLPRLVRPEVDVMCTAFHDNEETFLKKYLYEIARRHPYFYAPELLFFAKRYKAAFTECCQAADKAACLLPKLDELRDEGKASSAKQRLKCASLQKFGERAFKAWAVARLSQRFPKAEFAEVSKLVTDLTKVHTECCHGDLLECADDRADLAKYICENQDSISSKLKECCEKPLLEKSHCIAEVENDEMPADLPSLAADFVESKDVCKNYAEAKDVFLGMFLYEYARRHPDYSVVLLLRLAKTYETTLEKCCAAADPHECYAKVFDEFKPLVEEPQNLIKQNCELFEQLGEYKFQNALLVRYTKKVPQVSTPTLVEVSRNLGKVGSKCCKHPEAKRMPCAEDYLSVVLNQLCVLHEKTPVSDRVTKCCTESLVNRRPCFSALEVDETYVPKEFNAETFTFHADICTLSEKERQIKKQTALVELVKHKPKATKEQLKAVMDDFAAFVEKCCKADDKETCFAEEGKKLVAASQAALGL
# EXPERIMENTAL CONTEXT: Table S5, HSA, pH 7.4
// thresholds for log k HSA classes: band A (below -0.2), band B (-0.2 to below 0.7), band C (0.7 or more)

C[C@]12C=CC(=O)C=C1CC[C@@H]1[C@@H]2[C@@H](O)C[C@@]2(C)[C@H]1CC[C@]2(O)C(=O)CO [prednizolone]; band A
CN(C)CCc1c[nH]c2ccc(C[C@H]3COC(=O)N3)cc12 [zolmitriptane]; band B
CN(C)CCOC(c1ccccc1)c1ccccc1 [diphenhydramin]; band B
NC(=O)N1c2ccccc2C=Cc2ccccc21 [carbamazepine]; band B

query: Lab note: sort O=C(N[C@H](CO)[C@H](O)c1ccc([N+](=O)[O-])cc1)C(Cl)Cl [chloramphenikol] into the matching log k HSA band.
result: band A

query: Lab note: sort Fc1ccc([C@@H]2CCNC[C@H]2COc2ccc3c(c2)OCO3)cc1 [paroxetine] into the matching log k HSA band.
result: band C

query: Lab note: sort CC(=O)[C@H]1CC[C@H]2[C@@H]3CCC4=CC(=O)CC[C@]4(C)[C@H]3CC[C@]12C [progesterone] into the matching log k HSA band.
result: band C

query: Lab note: sort CCN(Cc1ccncc1)C(=O)C(CO)c1ccccc1 (centres unmarked) [tropicamid] into the matching log k HSA band.
result: band A

query: Lab note: sort CC(CN1c2ccccc2Sc2ccccc21)N(C)C (centres unmarked) [promethazine] into the matching log k HSA band.
result: band C

query: Lab note: sort CC(=O)Nc1ccc(O)cc1 [paracetamol] into the matching log k HSA band.
result: band A

* * *

# TARGET: bovine serum albumin (BSA) (Bos taurus, UniProt P02769)
# Construct: purchased Sigma Aldrich
# Sequence (P02769 25-607): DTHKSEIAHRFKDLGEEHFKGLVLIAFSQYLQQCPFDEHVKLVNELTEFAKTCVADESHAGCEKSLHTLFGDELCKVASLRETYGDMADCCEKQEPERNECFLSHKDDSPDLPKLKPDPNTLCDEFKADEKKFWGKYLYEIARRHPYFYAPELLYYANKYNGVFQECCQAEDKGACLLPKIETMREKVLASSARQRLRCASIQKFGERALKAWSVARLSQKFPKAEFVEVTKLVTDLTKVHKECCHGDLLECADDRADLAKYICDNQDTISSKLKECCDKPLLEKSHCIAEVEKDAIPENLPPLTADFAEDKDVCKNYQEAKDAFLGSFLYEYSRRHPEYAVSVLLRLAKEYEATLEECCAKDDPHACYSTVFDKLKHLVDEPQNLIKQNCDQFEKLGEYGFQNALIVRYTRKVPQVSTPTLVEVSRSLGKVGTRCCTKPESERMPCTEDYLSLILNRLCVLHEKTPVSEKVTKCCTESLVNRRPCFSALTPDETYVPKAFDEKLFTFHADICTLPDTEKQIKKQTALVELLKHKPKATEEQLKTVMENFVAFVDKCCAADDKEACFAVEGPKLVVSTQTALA
# TEST DETAILS: NP TLC on plates impregnated with bovine serum albumin
# Type: binding
# EXPERIMENTAL CONTEXT: Table S3, NP plate impregnated with 2 mg/mL BSA; pH 7.4 mobile phase
Please respond with satisfied when measured NP (Rf, BSA-impregnated NP plate) is strictly beneath 0.7, and with not satisfied in all other cases.

Would you please look over these solved cases?
CC(C)NCC(O)COc1ccc(COCCOC(C)C)cc1 (stereo not drawn); satisfied
O=C1NC(=O)C(c2ccccc2)(c2ccccc2)N1; not satisfied
OC(CNCC(O)C1CCc2cc(F)ccc2O1)C1CCc2cc(F)ccc2O1 (stereo not drawn); not satisfied
O=C(N[C@H](CO)[C@H](O)c1ccc([N+](=O)[O-])cc1)C(Cl)Cl; not satisfied
CN1CCN2c3ncccc3Cc3ccccc3C2C1 (stereo not drawn); satisfied

query: Strictly below 0.7 in NP (Rf, BSA-impregnated NP plate)? CCOCCn1c(C2CCN(CCc3ccc(C(C)(C)C(=O)O)cc3)CC2)nc2ccccc21
result: satisfied

query: Strictly below 0.7 in NP (Rf, BSA-impregnated NP plate)? CN1CCC(=C2c3ccccc3CC(=O)c3sccc32)CC1
result: satisfied

query: Strictly below 0.7 in NP (Rf, BSA-impregnated NP plate)? CC[C@H]1OC(=O)[C@H](C)[C@@H](O[C@H]2C[C@@](C)(OC)[C@@H](O)[C@H](C)O2)[C@H](C)[C@@H](O[C@@H]2O[C@H](C)C[C@H](N(C)C)[C@H]2O)[C@](C)(OC)C[C@@H](C)C(=O)[C@H](C)[C@@H](O)[C@]1(C)O
result: not satisfied

query: Strictly below 0.7 in NP (Rf, BSA-impregnated NP plate)? CCCc1nn(C)c2c(=O)[nH]c(-c3cc(S(=O)(=O)N4CCN(C)CC4)ccc3OCC)nc12
result: satisfied

query: Strictly below 0.7 in NP (Rf, BSA-impregnated NP plate)? Cc1ccc(S(=O)(=O)NC(=O)NN2CC3CCCC3C2)cc1 (stereo not drawn) [gliclazide]
result: not satisfied

query: Strictly below 0.7 in NP (Rf, BSA-impregnated NP plate)? CC(=O)Oc1ccccc1C(=O)O
result: not satisfied

query: Strictly below 0.7 in NP (Rf, BSA-impregnated NP plate)? CCCN1C[C@H](CSC)C[C@@H]2c3cccc4[nH]cc(c34)C[C@H]21 [pergolide]
result: satisfied

query: Strictly below 0.7 in NP (Rf, BSA-impregnated NP plate)? CC(=O)Nc1ccc(O)cc1
result: not satisfied

query: Strictly below 0.7 in NP (Rf, BSA-impregnated NP plate)? CCCC(CCC)C(=O)O
result: satisfied

query: Strictly below 0.7 in NP (Rf, BSA-impregnated NP plate)? CSc1ccc2c(c1)N(CCC1CCCCN1C)c1ccccc1S2 (stereo not drawn)
result: satisfied

query: Strictly below 0.7 in NP (Rf, BSA-impregnated NP plate)? CN[C@H]1CC[C@@H](c2ccc(Cl)c(Cl)c2)c2ccccc21
result: satisfied

* * *

Please respond with reported CRP (Rf, control RP plate) for every item in the list.
# TEST DETAILS: RP TLC on non-impregnated control plates
# Type: physicochemical
# EXPERIMENTAL CONTEXT: Table S4, non-impregnated RP plate; acetonitrile/acetate buffer pH 7.4/methanol 60:20:20
Answers are plain numbers.

Clc1cccc(Cl)c1N=C1NCCN1; 0.73
CN1CCC(=C2c3ccccc3C=Cc3ccccc32)CC1; 0.45

Could you tell me CRP (Rf, control RP plate) for each of these compounds? They are listed below.
1. CN(C)C(=O)C(CCN1CCC(O)(c2ccc(Cl)cc2)CC1)(c1ccccc1)c1ccccc1 [loperamide]
2. CCOc1ccc(/C=C2\NCCc3cc(OCC)c(OCC)cc32)cc1OCC
3. CO/N=C(\C(=O)N[C@@H]1C(=O)N2C(C(=O)O)=C(COC(N)=O)CS[C@H]12)c1ccco1
4. CN[C@H]1CC[C@@H](c2ccc(Cl)c(Cl)c2)c2ccccc21

result:
0.75
0.55
0.88
0.49

Could you tell me CRP (Rf, control RP plate) for each of these compounds? They are listed below.
1. O=C1NC(=O)C(c2ccccc2)(c2ccccc2)N1
2. Cc1ncc2n1-c1ccc(Cl)cc1C(c1ccccc1F)=NC2
3. CCN(CC)CC#CCOC(=O)C(O)(c1ccccc1)C1CCCCC1 (stereo not shown)
4. CCCNCC(O)COc1ccccc1C(=O)CCc1ccccc1 (stereo not shown)
5. CC(C)c1nc(N(C)S(C)(=O)=O)nc(-c2ccc(F)cc2)c1/C=C/[C@@H](O)C[C@@H](O)CC(=O)O
6. CCOC(=O)C1=C(COCCN)NC(C)=C(C(=O)OC)C1c1ccccc1Cl (stereo not shown)
7. CC(=O)Oc1ccccc1C(=O)O
8. C=CCN1C[C@H](C(=O)N(CCCN(C)C)C(=O)NCC)C[C@@H]2c3cccc4[nH]cc(c34)C[C@H]21

result:
1: 0.87; 2: 0.66; 3: 0.29; 4: 0.56; 5: 0.92; 6: 0.61; 7: 0.98; 8: 0.68

Could you tell me CRP (Rf, control RP plate) for each of these compounds? They are listed below.
1. CCN(CC)C(=O)Nc1ccc(OCC(O)CNC(C)(C)C)c(C(C)=O)c1 (stereo not shown)
2. CCCCCOC(=O)Nc1nc(=O)n([C@@H]2O[C@H](C)[C@@H](O)[C@H]2O)cc1F
3. CCOC(=O)[C@H](CCc1ccccc1)N[C@@H](C)C(=O)N1CCC[C@H]1C(=O)O
4. CC(C)(O)c1ccccc1CC[C@@H](SCC1(CC(=O)O)CC1)c1cccc(/C=C/c2ccc3ccc(Cl)cc3n2)c1

result:
1: 0.75; 2: 0.90; 3: 0.60; 4: 0.70

The compound identified as C[C@]12CC[C@@H]3c4ccc(O)cc4CC[C@H]3[C@@H]1CCC2=O registered its CRP (Rf, control RP plate) at 0.79
